B1: HDV Ribozyme (parent)
chain: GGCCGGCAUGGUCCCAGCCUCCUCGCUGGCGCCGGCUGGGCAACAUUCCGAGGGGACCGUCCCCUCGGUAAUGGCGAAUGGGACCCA

# Variants of: B1
# PROCEDURE_TEXT: self-cleavage, relative activity (ratio to wild type); higher = more cleavage; co-transcriptional
PROPERTY: self-cleavage
Reply with just the number.

Recall and state the measured self-cleavage for G17U C24A . 0.116

Recall and state the measured self-cleavage for G31A A51G . 0.554

Recall and state the measured self-cleavage for C75G G76A . 0.196

Recall and state the measured self-cleavage for G17A C32A . 0.0852

Recall and state the measured self-cleavage for U23A C26G . 0.978

Recall and state the measured self-cleavage for U12G C62U . 0.755

Recall and state the measured self-cleavage for C13U C41A . 0.522

Recall and state the measured self-cleavage for C57G U60G . 0.95

Recall and state the measured self-cleavage for C24G C64U . 0.0886
